target: Progesterone receptor (Homo sapiens, UniProt P06401); assay: Agonistic activity measures the ability to induce alkaline phosphatase in T47D human breast cancer cell line; type: functional, cell-based
Sequence (P06401 whole entry): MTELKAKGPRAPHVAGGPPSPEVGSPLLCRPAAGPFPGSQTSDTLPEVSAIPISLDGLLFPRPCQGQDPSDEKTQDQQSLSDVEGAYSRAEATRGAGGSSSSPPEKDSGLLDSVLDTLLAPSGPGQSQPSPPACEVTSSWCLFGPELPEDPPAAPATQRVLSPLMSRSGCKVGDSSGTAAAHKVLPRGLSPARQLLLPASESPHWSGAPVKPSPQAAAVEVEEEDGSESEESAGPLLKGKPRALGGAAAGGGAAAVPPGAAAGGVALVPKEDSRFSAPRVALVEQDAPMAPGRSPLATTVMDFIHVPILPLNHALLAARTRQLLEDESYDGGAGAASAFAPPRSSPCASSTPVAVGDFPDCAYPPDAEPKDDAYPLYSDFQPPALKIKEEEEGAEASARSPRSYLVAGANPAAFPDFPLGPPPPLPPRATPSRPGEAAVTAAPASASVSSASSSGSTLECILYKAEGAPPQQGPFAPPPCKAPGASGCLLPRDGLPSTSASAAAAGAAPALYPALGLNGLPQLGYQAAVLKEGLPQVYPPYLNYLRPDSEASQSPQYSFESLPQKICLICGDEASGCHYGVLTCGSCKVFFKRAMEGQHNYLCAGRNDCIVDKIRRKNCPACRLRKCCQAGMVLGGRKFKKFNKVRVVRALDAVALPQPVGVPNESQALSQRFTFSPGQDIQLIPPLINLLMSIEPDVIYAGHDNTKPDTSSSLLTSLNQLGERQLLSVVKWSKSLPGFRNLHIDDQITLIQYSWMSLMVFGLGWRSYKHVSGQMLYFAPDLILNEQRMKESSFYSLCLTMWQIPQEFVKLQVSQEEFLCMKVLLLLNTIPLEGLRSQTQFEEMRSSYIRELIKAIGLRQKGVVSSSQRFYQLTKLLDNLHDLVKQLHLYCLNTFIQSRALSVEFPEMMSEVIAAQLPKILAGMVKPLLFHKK
Measured endpoint: EC50

Record excerpt, results attached:
In [3]: df
Out[3]:
                           molecular_string  measured_endpoint   observed
0  Cn1ccc(C#N)c1-c1ccc2c(c1)C(C)(C)OC(=O)N2               EC50     > 1 µM
1  CC1(C)OC(=O)Nc2ccc(-c3ccc(C#N)[nH]3)cc21               EC50  0.0021 µM
2     CC1(C)OC(=O)Nc2ccc(-c3ccc(C#N)s3)cc21               EC50      ~1 µM
3  O=C1Nc2ccc(-c3ccc([N+](=O)[O-])[nH]3)cc2C12CCCCC2               EC50     > 1 µM
4       CC1(C)OC(=O)Nc2ccc(-c3ccc[nH]3)cc21               EC50     > 3 µM

Now for a further compound.
Req: # query: EC50 of entry "CC1(C)OC(=O)Nc2ccc(-c3ccc(C#N)o3)cc21"
Resp: ~3 µM

---

target: Progesterone receptor (Homo sapiens, UniProt P06401); test: Agonistic activity measures the ability to induce alkaline phosphatase in T47D human breast cancer cell line; type: functional, cell-based
Measured endpoint: EC50

Solved cases below.
In [3]: df
Out[3]:
                           molecular_string                          target_or_system  measured_endpoint   observed
0  N#Cc1ccc(-c2ccc3c(c2)C2(CCCCC2)C(=O)N3)[nH]1  Progesterone receptor (Homo sapiens, UniProt P06401)               EC50    0.06 µM
1  CC1(C)OC(=O)Nc2ccc(-c3ccc(C=O)[nH]3)cc21  Progesterone receptor (Homo sapiens, UniProt P06401)               EC50      ~1 µM
2  CC1(C)OC(=O)Nc2ccc(-c3c[nH]c(C#N)c3)cc21  Progesterone receptor (Homo sapiens, UniProt P06401)               EC50     > 1 µM
3  CC1(C)OC(=O)Nc2ccc(-c3ccc([N+](=O)[O-])[nH]3)cc21  Progesterone receptor (Homo sapiens, UniProt P06401)               EC50      ~1 µM
4  Cn1cc(-c2ccc3c(c2)C(C)(C)OC(=O)N3)cc1C#N  Progesterone receptor (Homo sapiens, UniProt P06401)               EC50     > 1 µM
5  CC1(C)OC(=O)Nc2ccc(-c3ccc(C(=O)C(F)(F)F)[nH]3)cc21  Progesterone receptor (Homo sapiens, UniProt P06401)               EC50      ~1 µM
6    CC1(C)OC(=O)Nc2ccc(-c3[nH]ccc3C#N)cc21  Progesterone receptor (Homo sapiens, UniProt P06401)               EC50     > 1 µM
7     CC1(C)OC(=O)Nc2ccc(-c3cnc(C#N)o3)cc21  Progesterone receptor (Homo sapiens, UniProt P06401)               EC50     > 1 µM
8  Cn1c(-c2ccc3c(c2)C(C)(C)OC(=O)N3)cnc1C#N  Progesterone receptor (Homo sapiens, UniProt P06401)               EC50    0.13 µM
9  Cn1c(C#N)ccc1-c1ccc2c(c1)C1(CCCCC1)C(=O)N2  Progesterone receptor (Homo sapiens, UniProt P06401)               EC50  0.0028 µM

From here, focus on the item given below.
Req: Form: Entry = "CC1(C)OC(=O)Nc2ccc(-c3cccc(C#N)c3)cc21" | System = Progesterone receptor (Homo sapiens, UniProt P06401) | EC50 = ____
Resp: ~1 µM

Values compiled from ChEMBL document CHEMBL1147554.
